Data provenance is ChEMBL document CHEMBL3885861.

Entries annotated with measured TP
species: Rattus norvegicus; test: Open TG-GATES - Regimen: Daily Repeat; type: toxicity, organism-based, Sprague-Dawley; parameters: regimen Daily Repeat, gender Male, age 6 weeks; details: in vivo, po, 0 mg/kg, […], tissue Plasma, route gavage, dose level Control, time 28 day
RECORDED_ENDPOINT: TP (g/dL)

MOLECULE: CCOc1ccc(NC(C)=O)cc1
RECORDED_ENDPOINT: TP
OBS_VALUE: 6.4

MOLECULE: Cc1nnc2n1-c1ccc(Cl)cc1C(c1ccccc1Cl)=NC2
RECORDED_ENDPOINT: TP
OBS_VALUE: 6.1

MOLECULE: CN1C(=O)CCS(=O)(=O)C1c1ccc(Cl)cc1 (stereo unspecified)
RECORDED_ENDPOINT: TP
OBS_VALUE: 6.3

MOLECULE: CN/C(=N/CCSCc1nc[nH]c1C)NC#N
RECORDED_ENDPOINT: TP
OBS_VALUE: 6

MOLECULE: CCCc1cc(=O)[nH]c(=S)[nH]1
RECORDED_ENDPOINT: TP
OBS_VALUE: 6.3

MOLECULE: Nc1c2c(nc3ccccc13)CCCC2
RECORDED_ENDPOINT: TP
OBS_VALUE: 6.2
